Data provenance is patent US4246270A.

- Tested on: tactile pinna reflex
- assay-overview: Tactile pinna reflex test (mouse)
- Type: in vivo
- condition-details: 0.5 h, oral (intubated), 30 minutes
Overview of reported ED50 across a group of compounds:

- compound: "CN1C(=O)C(F)N=C(c2ccccc2Cl)c2cc(Cl)ccc21 (stereo not shown)"
  ED50: "> 324 mg/kg"
- compound: "O=C1Nc2ccc(Cl)cc2C(c2ccccc2Cl)=NC1F (stereo not shown)"
  ED50: "> 324 mg/kg"
- compound: "CN1C(=O)C(F)N=C(c2ccccc2F)c2cc(Br)ccc21 (stereo not shown)"
  ED50: "< 324 mg/kg"

Next item in the queue.
stdin: What does the record list as ED50 for CCN1C(=O)C(F)N=C(c2ccccc2)c2cc(Cl)ccc21 (stereo not shown) ?
stdout: > 324 mg/kg
